# TARGET DESC: UniProt P97266
# Sequence (P97266 whole entry): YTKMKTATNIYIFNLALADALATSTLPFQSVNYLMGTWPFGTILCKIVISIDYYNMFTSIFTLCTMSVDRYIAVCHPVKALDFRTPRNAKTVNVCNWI
# PROTOCOL DESCRIPTION: Opioid receptor mu 1 agonism in guinea pig ileum
pIC50: −log10 of the molar value.

# CPD SMILES, pIC50
rows = [
    ("Cc1cc(O)cc(C)c1C[C@@H](N)C(=O)NCCCCNC(=O)[C@@H](N)Cc1c(C)cc(O)cc1C", 8.27),
    ("Cc1cc(O)cc(C)c1C[C@@H](N)C(=O)NCCCCCCNC(=O)[C@@H](N)Cc1c(C)cc(O)cc1C", 8.51),
    ("Cc1cc(O)cc(C)c1C[C@H](N)C(=O)NCCCCNC(=O)[C@H](N)Cc1ccccc1", 6.74),
    ("Cc1cc(O)cc(C)c1C[C@H](N)C(=O)NCCCCNC(=O)[C@H](N)Cc1ccc(O)cc1", 6.59),
    ("Cc1cc(O)cc(C)c1C[C@@H](N)C(=O)NCCCCCCCCNC(=O)[C@@H](N)Cc1c(C)cc(O)cc1C", 7.27),
    ("Cc1cc(O)cc(C)c1C[C@@H](N)C(=O)NCCNC(=O)[C@@H](N)Cc1c(C)cc(O)cc1C", 5.55),
]

###

// Ratio lookup, one value per entry
# TARGET DESC: Opioid receptors; mu & delta (Rattus norvegicus) (UniProt P33533+P33535)
# Sequence (P33533 whole entry, looked up): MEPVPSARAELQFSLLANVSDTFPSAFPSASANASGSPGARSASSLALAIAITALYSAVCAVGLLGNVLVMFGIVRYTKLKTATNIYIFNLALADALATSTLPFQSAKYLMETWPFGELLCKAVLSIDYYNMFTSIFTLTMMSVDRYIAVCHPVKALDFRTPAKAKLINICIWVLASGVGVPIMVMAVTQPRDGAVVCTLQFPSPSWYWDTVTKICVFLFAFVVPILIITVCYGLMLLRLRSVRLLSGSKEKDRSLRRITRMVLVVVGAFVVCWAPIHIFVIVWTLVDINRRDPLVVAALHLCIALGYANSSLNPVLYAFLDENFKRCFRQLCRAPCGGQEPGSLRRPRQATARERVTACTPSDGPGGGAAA
# Sequence (P33535 whole entry, looked up): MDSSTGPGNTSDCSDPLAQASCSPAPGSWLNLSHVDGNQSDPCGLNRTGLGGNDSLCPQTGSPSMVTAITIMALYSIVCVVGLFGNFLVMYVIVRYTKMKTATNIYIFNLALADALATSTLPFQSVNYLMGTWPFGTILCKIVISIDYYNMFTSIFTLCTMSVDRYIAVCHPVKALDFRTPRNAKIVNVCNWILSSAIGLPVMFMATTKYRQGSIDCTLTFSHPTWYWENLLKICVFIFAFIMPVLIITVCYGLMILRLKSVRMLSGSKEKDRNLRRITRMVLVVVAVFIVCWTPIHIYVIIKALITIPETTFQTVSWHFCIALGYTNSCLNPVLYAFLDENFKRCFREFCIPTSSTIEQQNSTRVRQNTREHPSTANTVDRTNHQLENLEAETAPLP
# PROTOCOL DESCRIPTION: Receptor selectivity for the delta to mu opioid receptor
# Format: protein assay

# CPD SMILES, Ratio
data = [
    ("Cc1cc(O)cc(C)c1C[C@@H](N)C(=O)NCCNC(=O)[C@@H](N)Cc1c(C)cc(O)cc1C", 81),
    ("N[C@H](Cc1ccc(O)cc1)C(=O)NCCCCNC(=O)[C@@H](N)Cc1ccc(O)cc1", 21),
    ("Cc1cc(O)cc(C)c1C[C@@H](N)C(=O)NCCCCNC(=O)[C@@H](N)Cc1c(C)cc(O)cc1C", 1300),
    ("N[C@H](Cc1ccc(O)cc1)C(=O)NCCNC(=O)[C@@H](N)Cc1ccc(O)cc1", 13),
    ("N[C@H](Cc1ccccc1)C(=O)NCCCCNC(=O)[C@@H](N)Cc1ccccc1", 30),
]

###

# TARGET DESC: Delta-type opioid receptor (Rattus norvegicus)
# PROTOCOL DESCRIPTION: Binding affinity for Opioid receptor delta 1 using [3H]DPDPE in rat brain P2 synaptosomal preparation
# Assay type: tissue-based

# CPD SMILES, OUTPUT UNIT, Ki
measured = [
    ("Cc1cc(O)cc(C)c1C[C@H](N)C(=O)NCCCCNC(=O)[C@H](N)Cc1ccc(O)cc1", "nM", 133),
    ("Cc1cc(O)cc(C)c1C[C@@H](N)C(=O)NCCCCCCNC(=O)[C@@H](N)Cc1c(C)cc(O)cc1C", "nM", 46.1),
    ("N[C@H](Cc1ccc(O)cc1)C(=O)NCCCCCCNC(=O)[C@@H](N)Cc1ccc(O)cc1", "nM", 21900),
    ("N[C@H](Cc1ccc(O)cc1)C(=O)NCCCCCCCCNC(=O)[C@@H](N)Cc1ccc(O)cc1", "nM", 6150),
    ("Cc1cc(O)cc(C)c1C[C@@H](N)C(=O)NCCCCCCCCNC(=O)[C@@H](N)Cc1c(C)cc(O)cc1C", "nM", 14.8),
    ("N[C@H](Cc1ccc(O)cc1)C(=O)NCCCCNC(=O)[C@@H](N)Cc1ccc(O)cc1", "nM", 6500),
    ("N[C@H](Cc1ccccc1)C(=O)NCCCCNC(=O)[C@@H](N)Cc1ccccc1", "nM", 46200),
    ("Cc1cc(O)cc(C)c1C[C@H](N)C(=O)NCCCCNC(=O)[C@H](N)Cc1ccccc1", "nM", 62),
    ("N[C@H](Cc1ccc(O)cc1)C(=O)NCCNC(=O)[C@@H](N)Cc1ccc(O)cc1", "nM", 8290),
    ("Cc1cc(O)cc(C)c1C[C@@H](N)C(=O)NCCNC(=O)[C@@H](N)Cc1c(C)cc(O)cc1C", "nM", 116),
    ("Cc1cc(O)cc(C)c1C[C@@H](N)C(=O)NCCCCNC(=O)[C@@H](N)Cc1c(C)cc(O)cc1C", "nM", 53.4),
]

###

# TARGET DESC: Delta-type opioid receptor (Mus musculus)
# Sequence (P32300 whole entry): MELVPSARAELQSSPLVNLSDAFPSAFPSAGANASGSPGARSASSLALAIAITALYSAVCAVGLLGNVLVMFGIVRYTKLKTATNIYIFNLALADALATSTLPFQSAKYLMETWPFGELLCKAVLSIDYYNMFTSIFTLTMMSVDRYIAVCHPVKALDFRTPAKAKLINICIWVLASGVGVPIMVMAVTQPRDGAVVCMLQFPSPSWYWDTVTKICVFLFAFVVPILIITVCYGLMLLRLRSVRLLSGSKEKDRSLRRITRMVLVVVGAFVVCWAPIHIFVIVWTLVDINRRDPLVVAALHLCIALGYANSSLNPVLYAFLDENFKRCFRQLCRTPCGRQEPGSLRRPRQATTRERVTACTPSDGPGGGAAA
# PROTOCOL DESCRIPTION: Concentration required to double the agonist concentration to achieve the original response for Opioid receptor delta 1
# Format: functional
# CONDITION SET: read-out: pA2 (converted)

# CPD SMILES, TARGET DESC, Kb (µM)
data = [
    ("Cc1cc(O)cc(C)c1C[C@@H](N)C(=O)NCCCCCCCCNC(=O)[C@@H](N)Cc1c(C)cc(O)cc1C", "Delta-type opioid receptor (Mus musculus)", 0.398),
    ("Cc1cc(O)cc(C)c1C[C@@H](N)C(=O)NCCCCNC(=O)[C@@H](N)Cc1c(C)cc(O)cc1C", "Delta-type opioid receptor (Mus musculus)", 1.58),
    ("Cc1cc(O)cc(C)c1C[C@H](N)C(=O)NCCCCNC(=O)[C@H](N)Cc1ccc(O)cc1", "Delta-type opioid receptor (Mus musculus)", 5.01),
    ("Cc1cc(O)cc(C)c1C[C@@H](N)C(=O)NCCNC(=O)[C@@H](N)Cc1c(C)cc(O)cc1C", "Delta-type opioid receptor (Mus musculus)", 3.16),
    ("Cc1cc(O)cc(C)c1C[C@H](N)C(=O)NCCCCNC(=O)[C@H](N)Cc1ccccc1", "Delta-type opioid receptor (Mus musculus)", 3.16),
    ("Cc1cc(O)cc(C)c1C[C@@H](N)C(=O)NCCCCCCNC(=O)[C@@H](N)Cc1c(C)cc(O)cc1C", "Delta-type opioid receptor (Mus musculus)", 0.794),
]

###

// pKi lookup, one value per entry
# TARGET DESC: Mu-type opioid receptor (Rattus norvegicus)
# Sequence (P33535 whole entry): as the sequence (P33535 whole entry, looked up) above
pKi: −log10 of the molar value.

# CPD SMILES, pKi
measured = [
    ("Cc1cc(O)cc(C)c1C[C@H](N)C(=O)NCCCCNC(=O)[C@H](N)Cc1ccccc1", 9.28),
    ("Cc1cc(O)cc(C)c1C[C@H](N)C(=O)NCCCCNC(=O)[C@H](N)Cc1ccc(O)cc1", 9.42),
    ("N[C@H](Cc1ccc(O)cc1)C(=O)NCCCCCCNC(=O)[C@@H](N)Cc1ccc(O)cc1", 6.39),
    ("Cc1cc(O)cc(C)c1C[C@@H](N)C(=O)NCCCCNC(=O)[C@@H](N)Cc1c(C)cc(O)cc1C", 10.39),
    ("Cc1cc(O)cc(C)c1C[C@@H](N)C(=O)NCCCCCCNC(=O)[C@@H](N)Cc1c(C)cc(O)cc1C", 10.28),
    ("N[C@H](Cc1ccccc1)C(=O)NCCCCNC(=O)[C@@H](N)Cc1ccccc1", 5.82),
    ("Cc1cc(O)cc(C)c1C[C@@H](N)C(=O)NCCCCCCCCNC(=O)[C@@H](N)Cc1c(C)cc(O)cc1C", 9.72),
    ("Cc1cc(O)cc(C)c1C[C@@H](N)C(=O)NCCNC(=O)[C@@H](N)Cc1c(C)cc(O)cc1C", 8.84),
    ("N[C@H](Cc1ccc(O)cc1)C(=O)NCCCCNC(=O)[C@@H](N)Cc1ccc(O)cc1", 6.51),
    ("N[C@H](Cc1ccc(O)cc1)C(=O)NCCCCCCCCNC(=O)[C@@H](N)Cc1ccc(O)cc1", 6.40),
    ("N[C@H](Cc1ccc(O)cc1)C(=O)NCCNC(=O)[C@@H](N)Cc1ccc(O)cc1", 6.19),
]

###

# TARGET DESC: Opioid receptors; mu & delta (Rattus norvegicus) (UniProt P33533+P33535)
# PROTOCOL DESCRIPTION: Receptor selectivity for the delta to mu opioid receptor
# Format: protein assay
// Ratio lookup, one value per entry

# CPD SMILES, Ratio
records = [
    ("Cc1cc(O)cc(C)c1C[C@H](N)C(=O)NCCCCNC(=O)[C@H](N)Cc1ccc(O)cc1", 349),
    ("N[C@H](Cc1ccc(O)cc1)C(=O)NCCCCCCNC(=O)[C@@H](N)Cc1ccc(O)cc1", 53),
    ("Cc1cc(O)cc(C)c1C[C@H](N)C(=O)NCCCCNC(=O)[C@H](N)Cc1ccccc1", 119),
    ("Cc1cc(O)cc(C)c1C[C@@H](N)C(=O)NCCCCCCCCNC(=O)[C@@H](N)Cc1c(C)cc(O)cc1C", 78),
    ("Cc1cc(O)cc(C)c1C[C@@H](N)C(=O)NCCCCCCNC(=O)[C@@H](N)Cc1c(C)cc(O)cc1C", 870),
]
